MEASURED ON: hTA1 b2N (Homo sapiens, UniProt Q96RJ0)
Construct: read by me as the first 25 residues of β2AR (N); expressed in transfected cells; host or cells: HEK293T
PROCEDURE TEXT: GloSensor cAMP accumulation assay, b2N construct
Assay type: cell-based
CONDITION SUMMARY: b2N; n=2; read-out: EC50
Binarize EC50 at 200 nM; below is rule met, at or above is rule not met.

Below are worked cases with known answers.
NCCc1ccccc1 [β-PEA, β-phenethylamine]	rule met
Cc1c(F)cccc1[C@H]1COC(N)=N1 [Ro5263397]	rule met
CN1CC2c3ccccc3Oc3ccc(Cl)cc3C2C1 (centres unmarked) [asenapine]	rule met
NCCc1ccc(Oc2ccc(O)cc2)c(I)c1 [T1AM, 3-iodothyronamine]	rule not met

Request: Could you please tell me whether EC50 recorded for NCCc1ccc(O)cc1 [TYR, tyramine] is less than 200 nM?
Response: rule met

---

MEASURED ON: hTA1 C13S (Homo sapiens, UniProt Q96RJ0, C13S)
Construct: expressed in transfected cells; host or cells: HEK293T
PROCEDURE TEXT: GloSensor cAMP accumulation assay, C13S mutant
Assay type: cell-based
CONDITION SUMMARY: C13S; n=2; read-out: EC50
# pEC50 listing for each entry below
Lab note — pEC50 values are minus log10 of concentrations in M.

Request: Look at this compound and give its reported pEC50. NCCc1ccccc1 [β-PEA, β-phenethylamine]
Response: 6.73

Request: Look at this compound and give its reported pEC50. Cc1c(F)cccc1[C@H]1COC(N)=N1 [Ro5263397]
Response: 8.61

Request: Look at this compound and give its reported pEC50. NCCc1ccc(O)cc1 [TYR, tyramine]
Response: 6.03

Request: Look at this compound and give its reported pEC50. NCCc1ccc(Oc2ccc(O)cc2)c(I)c1 [T1AM, 3-iodothyronamine]
Response: 5.99

Request: Look at this compound and give its reported pEC50. CN1CC2c3ccccc3Oc3ccc(Cl)cc3C2C1 (centres unmarked) [asenapine]
Response: 6.49

---

# ΔEmax values (each mutant value - WT average) listing for each entry below
MEASURED ON: hTA1 W264F (Homo sapiens, UniProt Q96RJ0, W264F)
Construct: expressed in transfected cells; host or cells: HEK293T
Sequence (Q96RJ0 1-339 W264F): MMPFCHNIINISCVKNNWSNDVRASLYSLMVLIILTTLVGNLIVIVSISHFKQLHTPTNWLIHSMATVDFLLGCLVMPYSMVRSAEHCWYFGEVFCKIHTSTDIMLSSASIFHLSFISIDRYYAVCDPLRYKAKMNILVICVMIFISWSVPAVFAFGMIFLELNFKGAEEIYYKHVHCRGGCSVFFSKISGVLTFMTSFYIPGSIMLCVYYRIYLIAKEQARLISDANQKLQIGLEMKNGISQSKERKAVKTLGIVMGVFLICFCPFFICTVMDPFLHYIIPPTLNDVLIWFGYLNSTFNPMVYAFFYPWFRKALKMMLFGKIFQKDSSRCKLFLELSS
PROCEDURE TEXT: GloSensor cAMP accumulation assay, W264F mutant;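 also: cells transiently transfected with receptor plus GloSensor, luminescence read 30 min after agonist addition at room temperature, concentration-response curves fitted by log(agonist) vs response regression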
Assay type: cell-based
CONDITION SUMMARY: W246F mutant (so in the source) minus WT average
Answer field: number only, no words.

Cc1c(F)cccc1[C@H]1COC(N)=N1 [Ro5263397]	-34.1318
NCCc1ccccc1 [β-PEA, β-phenethylamine]	0
NCCc1ccc(Oc2ccc(O)cc2)c(I)c1 [T1AM, 3-iodothyronamine]	-30.8369
CCc1[nH]nc(C(=O)Nc2ccc([C@H]3CNCCO3)cc2)c1C [ralmitaront]	-7.264
NCCc1ccc(O)cc1 [TYR, tyramine]	2.816

Below: the item to evaluate.
Request: Look at this compound and give its reported ΔEmax values (each mutant value - WT average). CCC(CC1COC(N)=N1)c1ccccc1 (stereo not drawn) [Ro5256390]
Response: -41.2891

---

MEASURED ON: hTA1 F195T (Homo sapiens, UniProt Q96RJ0, F195T)
Construct: expressed in transfected cells; host or cells: HEK293T
Sequence (Q96RJ0 1-339 F195T): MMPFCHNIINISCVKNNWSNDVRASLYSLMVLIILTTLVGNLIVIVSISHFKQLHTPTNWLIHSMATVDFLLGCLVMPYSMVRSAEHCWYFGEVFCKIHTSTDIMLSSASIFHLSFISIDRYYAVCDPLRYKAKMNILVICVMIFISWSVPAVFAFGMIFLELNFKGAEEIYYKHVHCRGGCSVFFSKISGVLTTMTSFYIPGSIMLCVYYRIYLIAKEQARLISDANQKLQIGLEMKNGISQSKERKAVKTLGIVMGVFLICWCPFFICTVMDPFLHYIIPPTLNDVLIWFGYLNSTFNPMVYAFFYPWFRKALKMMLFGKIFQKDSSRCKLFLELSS
PROCEDURE TEXT: GloSensor cAMP accumulation assay, F195T mutant;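 also: cells transiently co-expressing HA-FLAG-tagged hTA1 and the GloSensor cAMP biosensor, luminescence read 30 min after agonist addition at room temperature, concentration-response fitted by nonlinear regression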
Type: cell-based
CONDITION SUMMARY: EC50, F195T; n=2
REPORTED METRIC: pEC50
Lab note — pEC50 values are minus log10 of concentrations in M.

Request: Look at this molecule and give its reported pEC50. CCC(CC1COC(N)=N1)c1ccccc1 (stereo not shown)
Response: 8.54

---

MEASURED ON: hTA1 I290Y (Homo sapiens, UniProt Q96RJ0, I290Y)
Construct: expressed in transfected cells; host or cells: HEK293T
PROCEDURE TEXT: GloSensor cAMP accumulation assay, I290Y mutant
Type: cell-based
CONDITION SUMMARY: I290Y; read-out: EC50
# pEC50 listing for each entry below
Lab note — pEC50 values are minus log10 of concentrations in M.

NCCc1ccc(O)cc1	5.71
CN1CC2c3ccccc3Oc3ccc(Cl)cc3C2C1 (stereo not shown)	6.56
NCCc1ccc(Oc2ccc(O)cc2)c(I)c1	6.05

Request: Look at this molecule and give its reported pEC50. `NCCc1ccccc1`
Response: 6.43

---

MEASURED ON: hTA1 I290Y (Homo sapiens, UniProt Q96RJ0, I290Y)
Construct: expressed in transfected cells; host or cells: HEK293T
PROCEDURE TEXT: GloSensor cAMP accumulation assay, I290Y mutant
Assay type: cell-based
CONDITION SUMMARY: pEC50 ± SEM, I290Y
REPORTED METRIC: pEC50
Lab note — pEC50 values are minus log10 of concentrations in M.

Request: Look at this compound and give its reported pEC50. CCC(CC1COC(N)=N1)c1ccccc1 (stereo not shown) [Ro5256390]
Response: 8.42

---

MEASURED ON: hTA1 T194A (Homo sapiens, UniProt Q96RJ0, T194A)
Sequence (Q96RJ0 1-339 T194A): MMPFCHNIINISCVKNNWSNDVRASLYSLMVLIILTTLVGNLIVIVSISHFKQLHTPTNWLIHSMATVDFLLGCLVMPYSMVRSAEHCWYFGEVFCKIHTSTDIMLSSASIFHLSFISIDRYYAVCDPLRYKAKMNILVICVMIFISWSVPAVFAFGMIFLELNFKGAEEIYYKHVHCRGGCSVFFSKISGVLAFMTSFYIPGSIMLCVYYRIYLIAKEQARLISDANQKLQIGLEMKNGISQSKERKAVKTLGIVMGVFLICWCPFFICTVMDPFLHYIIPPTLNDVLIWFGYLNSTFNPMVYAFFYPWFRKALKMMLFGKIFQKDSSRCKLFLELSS
PROCEDURE TEXT: GloSensor cAMP accumulation assay, T194A mutant
CONDITION SUMMARY: EC50, T194A
# pEC50 listing for each entry below
Lab note — pEC50 values are minus log10 of concentrations in M.

CCC(CC1COC(N)=N1)c1ccccc1 (centres unmarked) [Ro5256390]	7.46

Below: the item to evaluate.
Request: Look at this compound and give its reported pEC50. CN1CC2c3ccccc3Oc3ccc(Cl)cc3C2C1 (centres unmarked) [asenapine]
Response: 6.27

---

MEASURED ON: hTA1 T271N (Homo sapiens, UniProt Q96RJ0, T271N)
Construct: expressed in transfected cells; host or cells: HEK293T
PROCEDURE TEXT: GloSensor cAMP accumulation assay, T271N mutant
Type: cell-based
CONDITION SUMMARY: T271N; n=2; read-out: EC50
# log10(EC50) listing for each entry below
Values are log10 of EC50 in nM.

Worked examples, 3 compounds total:
NCCc1ccc(Oc2ccc(O)cc2)c(I)c1	2.75
NCCc1ccc(O)cc1	2.94
Cc1c(F)cccc1[C@H]1COC(N)=N1	0.70

Request: Look at this compound and give its reported log10(EC50). `NCCc1ccccc1`
Response: 2.57

Request: Look at this compound and give its reported log10(EC50). CN1CC2c3ccccc3Oc3ccc(Cl)cc3C2C1 (centres unmarked)
Response: 2.68

---

MEASURED ON: hTA1 T271A (Homo sapiens, UniProt Q96RJ0, T271A)
Construct: expressed in transfected cells; host or cells: HEK293T
PROCEDURE TEXT: GloSensor cAMP accumulation assay, T271A mutant
Type: cell-based
CONDITION SUMMARY: T271A; n=2; read-out: EC50
Binarize EC50 at 4000 nM; below is True, at or above is False.

Below are worked cases with known answers.
CN1CC2c3ccccc3Oc3ccc(Cl)cc3C2C1 (centres unmarked)	True
NCCc1ccccc1	True
NCCc1ccc(Oc2ccc(O)cc2)c(I)c1	True
Cc1c(F)cccc1[C@H]1COC(N)=N1	True

Could you now consider this next compound?
Request: Could you please tell me whether EC50 recorded for `NCCc1ccc(O)cc1` is less than 4000 nM?
Response: False
